Biological target: T1, human LAG-3 on cells (HEK293-hLAG-3 stable cell line) (human, UniProt P18627 23-525)
T1 sequence: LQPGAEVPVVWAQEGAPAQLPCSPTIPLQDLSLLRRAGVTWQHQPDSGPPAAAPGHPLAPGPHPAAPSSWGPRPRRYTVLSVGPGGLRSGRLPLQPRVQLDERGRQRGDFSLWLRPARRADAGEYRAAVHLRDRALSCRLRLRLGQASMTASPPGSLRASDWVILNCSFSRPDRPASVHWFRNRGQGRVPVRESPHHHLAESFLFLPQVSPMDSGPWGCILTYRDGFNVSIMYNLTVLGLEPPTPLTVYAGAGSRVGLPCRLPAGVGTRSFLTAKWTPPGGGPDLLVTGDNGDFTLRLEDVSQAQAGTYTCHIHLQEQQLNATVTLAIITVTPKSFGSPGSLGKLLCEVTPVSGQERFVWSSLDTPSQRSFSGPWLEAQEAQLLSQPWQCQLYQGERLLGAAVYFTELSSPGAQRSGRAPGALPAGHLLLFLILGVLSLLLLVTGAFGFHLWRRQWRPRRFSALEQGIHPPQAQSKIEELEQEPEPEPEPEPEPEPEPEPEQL
Experiment: cell-based or functional assay
MEASURED ENDPOINT: IL-2 production, SEB-dependent PBMC stimulation test, 2 ug/ml, N = 1 (pg/mL)
Provide the reading as a plain figure in pg/mL.

Below, 2 binders whose answers are already recorded.
409D4E10 mouse-human chimeric antibody (antibody, V domains shown, also called mAb112-409D4E10) VH: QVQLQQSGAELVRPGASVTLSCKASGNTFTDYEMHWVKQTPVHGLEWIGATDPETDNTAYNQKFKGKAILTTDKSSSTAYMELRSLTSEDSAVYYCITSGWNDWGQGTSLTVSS VL: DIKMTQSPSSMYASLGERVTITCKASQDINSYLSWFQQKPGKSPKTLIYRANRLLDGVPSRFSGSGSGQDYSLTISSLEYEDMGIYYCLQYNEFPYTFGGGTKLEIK = 2770
405B8H3 mouse-human chimeric antibody (antibody, V domains shown, also called mAb103-405B8H3) VH: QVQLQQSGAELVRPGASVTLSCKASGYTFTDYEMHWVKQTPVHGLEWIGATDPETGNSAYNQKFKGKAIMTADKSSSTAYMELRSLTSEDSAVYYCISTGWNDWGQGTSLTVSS VL: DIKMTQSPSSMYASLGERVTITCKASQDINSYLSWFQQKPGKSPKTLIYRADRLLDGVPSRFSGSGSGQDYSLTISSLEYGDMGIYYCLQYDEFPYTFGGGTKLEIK = 2700

Switching to the query record.
Task: Look up IL-2 production, SEB-dependent PBMC stimulation test, 2 ug/ml, N = 1 for this binder: 556F6B8 mouse-human chimeric antibody (antibody, V domains shown, also called mAb123-556F6B8; 556F8B8) VH: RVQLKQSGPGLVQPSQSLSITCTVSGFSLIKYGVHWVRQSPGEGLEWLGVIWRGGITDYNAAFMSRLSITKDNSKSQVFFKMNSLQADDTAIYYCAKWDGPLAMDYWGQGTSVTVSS VL: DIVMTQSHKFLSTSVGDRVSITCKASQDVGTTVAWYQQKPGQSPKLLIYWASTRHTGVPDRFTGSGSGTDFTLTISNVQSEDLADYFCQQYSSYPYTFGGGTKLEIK
Output: 3800
